# MEASUREMENT_TARGET: RAC-alpha serine/threonine-protein kinase (Homo sapiens, UniProt P31749)
# Sequence (P31749 whole entry): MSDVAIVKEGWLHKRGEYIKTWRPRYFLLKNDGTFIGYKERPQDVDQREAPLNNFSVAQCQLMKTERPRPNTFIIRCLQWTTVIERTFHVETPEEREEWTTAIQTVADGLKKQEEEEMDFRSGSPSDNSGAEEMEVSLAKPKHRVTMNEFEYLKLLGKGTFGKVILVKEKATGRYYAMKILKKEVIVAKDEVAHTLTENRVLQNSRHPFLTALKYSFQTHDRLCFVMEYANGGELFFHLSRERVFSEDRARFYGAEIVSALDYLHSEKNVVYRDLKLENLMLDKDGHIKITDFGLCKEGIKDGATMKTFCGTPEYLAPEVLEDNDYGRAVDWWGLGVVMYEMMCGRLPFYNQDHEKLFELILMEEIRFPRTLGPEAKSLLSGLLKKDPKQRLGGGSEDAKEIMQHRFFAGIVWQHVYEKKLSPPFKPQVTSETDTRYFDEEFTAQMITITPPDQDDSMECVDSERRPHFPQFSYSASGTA
QUANTITY_MEASURED: IC50 (nM)
Output spec: scalar in nM, unitless text.

Problem: Would you kindly share the measured IC50 for O=C1COc2ccc(-c3cc(-c4ccccc4)cc(-c4ccc5oc(=O)[nH]c5c4)n3)cc2N1 ?
Result: 2600
